Target: STING (Homo sapiens, UniProt Q86WV6, G230A/H232R/R293Q/R71H)
Sequence (Q86WV6 whole entry R71H/G230A/H232R/R293Q): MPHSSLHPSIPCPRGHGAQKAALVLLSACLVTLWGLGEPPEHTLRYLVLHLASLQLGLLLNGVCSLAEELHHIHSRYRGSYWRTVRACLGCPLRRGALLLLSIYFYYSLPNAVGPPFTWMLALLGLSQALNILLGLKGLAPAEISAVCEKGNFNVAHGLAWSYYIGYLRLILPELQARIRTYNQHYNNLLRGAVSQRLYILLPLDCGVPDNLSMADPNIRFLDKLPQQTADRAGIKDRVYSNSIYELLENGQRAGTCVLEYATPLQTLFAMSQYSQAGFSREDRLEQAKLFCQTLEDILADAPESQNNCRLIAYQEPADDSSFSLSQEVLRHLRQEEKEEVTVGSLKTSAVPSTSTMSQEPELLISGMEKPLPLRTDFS
Assay: STING reporter assay: luciferase reporter activity in THP1-Dual KO-IFNAR2 cells stimulated with 2′3′cGAMP
Settings: 15 μM 2′3′cGAMP, 24h, read-out: hSTING EC50
pEC50: −log10 of the molar value.
Recorded pEC50 by entry

>  <compound>
COC(C)C(=O)Nc1c[nH]c2ccc(-c3cnn(-c4ccc(C(F)(F)F)cc4)c3)cc12 (stereo not shown)

>  <pEC50>
5.30 to 6.00

$$$$
>  <compound>
CC(=O)Nc1c[nH]c2ccc(-c3cnn(Cc4cccc(C(F)(F)F)c4)c3)cc12

>  <pEC50>
6.00 to 6.70

$$$$
>  <compound>
O=C(Nc1c[nH]c2ccc(-c3cnn(-c4ccc(C(F)(F)F)cc4)c3)cc12)C1(C(F)(F)F)CC1

>  <pEC50>
5.30 to 6.00

$$$$
>  <compound>
CCc1ccc(-n2cc(-c3ccc4[nH]cc(NC(=O)C5CCCC5)c4c3)cn2)cc1

>  <pEC50>
6.70 to 7.40

$$$$
